What EC50 (read off the curve) was measured for each of the following?
# assayed-system: T1, human CD22 domain1-4-His (human, UniProt P20273 20-425)
# T1 construct: also called hCD22 domain1-4-His; not shown: His tag
# T1 sequence: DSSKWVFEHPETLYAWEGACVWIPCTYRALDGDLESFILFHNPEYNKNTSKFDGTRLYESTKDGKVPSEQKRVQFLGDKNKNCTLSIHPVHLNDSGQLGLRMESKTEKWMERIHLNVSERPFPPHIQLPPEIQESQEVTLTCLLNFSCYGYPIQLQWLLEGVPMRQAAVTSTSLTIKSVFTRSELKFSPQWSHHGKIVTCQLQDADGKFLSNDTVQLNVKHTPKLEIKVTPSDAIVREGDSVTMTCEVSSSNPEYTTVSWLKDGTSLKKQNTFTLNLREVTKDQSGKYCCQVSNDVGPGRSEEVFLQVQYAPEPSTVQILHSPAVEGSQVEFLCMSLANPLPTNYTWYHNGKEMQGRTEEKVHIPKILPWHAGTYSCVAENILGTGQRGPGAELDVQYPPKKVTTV
# assay-details: ELISA, human CD22 domain1-4-His coated

>  <binder>
F1.17.1 (antibody, human IgG1, kappa, V domains shown, Human-murine chimeric IgG1, kappa) VH: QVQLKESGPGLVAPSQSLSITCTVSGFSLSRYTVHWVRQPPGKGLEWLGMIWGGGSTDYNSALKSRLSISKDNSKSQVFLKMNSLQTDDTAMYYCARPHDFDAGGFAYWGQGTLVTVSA VL: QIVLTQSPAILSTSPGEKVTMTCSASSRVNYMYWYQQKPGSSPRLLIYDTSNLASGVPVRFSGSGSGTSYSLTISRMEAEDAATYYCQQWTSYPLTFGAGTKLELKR

>  <reported-result>
~0.1 nM

$$$$
>  <binder>
F2.42.9 (antibody, human IgG1, lambda, V domains shown, Human-murine chimeric IgG1, lambda) VH: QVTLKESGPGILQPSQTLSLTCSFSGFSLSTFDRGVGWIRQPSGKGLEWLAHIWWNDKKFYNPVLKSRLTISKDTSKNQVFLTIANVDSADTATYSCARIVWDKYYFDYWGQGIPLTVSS VL: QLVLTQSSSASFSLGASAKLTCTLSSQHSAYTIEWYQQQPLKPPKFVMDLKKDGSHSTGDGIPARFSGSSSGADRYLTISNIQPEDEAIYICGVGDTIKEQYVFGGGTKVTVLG

>  <reported-result>
~0.04 nM

$$$$

Query binder follows.
Field EC50 (read off the curve) (entry F2.127.11 (antibody, human IgG1, lambda, V domains shown, Human-murine chimeric IgG1, lambda) VH: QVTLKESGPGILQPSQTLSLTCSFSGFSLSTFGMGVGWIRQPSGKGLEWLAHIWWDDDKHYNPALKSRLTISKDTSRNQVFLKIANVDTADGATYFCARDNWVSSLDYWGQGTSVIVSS VL: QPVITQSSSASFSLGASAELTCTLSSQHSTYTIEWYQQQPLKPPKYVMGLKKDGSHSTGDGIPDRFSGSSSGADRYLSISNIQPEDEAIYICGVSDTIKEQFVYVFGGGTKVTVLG ) reads ~0.1 nM
